# EXPERIMENTAL_SYSTEM: Factor X, P00742
# Sequence (P00742 whole entry, looked up): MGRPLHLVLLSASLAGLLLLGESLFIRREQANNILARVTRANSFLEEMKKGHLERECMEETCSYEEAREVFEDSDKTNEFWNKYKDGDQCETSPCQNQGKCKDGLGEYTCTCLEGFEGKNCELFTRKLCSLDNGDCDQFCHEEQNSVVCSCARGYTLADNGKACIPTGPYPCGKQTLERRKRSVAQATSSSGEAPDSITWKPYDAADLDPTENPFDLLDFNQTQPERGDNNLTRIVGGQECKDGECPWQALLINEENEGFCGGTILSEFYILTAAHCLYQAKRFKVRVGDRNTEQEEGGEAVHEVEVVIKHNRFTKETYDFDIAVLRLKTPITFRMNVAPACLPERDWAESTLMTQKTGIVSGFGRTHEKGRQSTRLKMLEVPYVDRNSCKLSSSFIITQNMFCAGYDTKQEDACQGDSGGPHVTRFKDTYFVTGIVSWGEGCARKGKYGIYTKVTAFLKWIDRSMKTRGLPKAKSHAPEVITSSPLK
MEASUREMENT_LABEL: KM
Write the figure, then the unit, nothing else.

Consider the protein FIXa-D104N/K106S/I251S/R318Y/R338E/E410N (protein) chain 1: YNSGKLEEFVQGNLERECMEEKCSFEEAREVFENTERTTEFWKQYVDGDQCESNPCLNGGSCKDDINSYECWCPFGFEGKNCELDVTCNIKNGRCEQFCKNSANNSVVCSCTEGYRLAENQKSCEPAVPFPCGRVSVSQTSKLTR chain 2: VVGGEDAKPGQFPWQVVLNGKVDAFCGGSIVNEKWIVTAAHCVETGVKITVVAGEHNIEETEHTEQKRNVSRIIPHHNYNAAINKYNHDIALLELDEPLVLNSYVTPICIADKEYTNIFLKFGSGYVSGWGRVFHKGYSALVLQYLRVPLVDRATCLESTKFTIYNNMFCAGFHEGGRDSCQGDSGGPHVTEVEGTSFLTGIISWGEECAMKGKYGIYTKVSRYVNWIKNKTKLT and give its measured KM. 24.3 nM

Consider the protein FIXa-K293A/R338A/R403A (protein) chain 1: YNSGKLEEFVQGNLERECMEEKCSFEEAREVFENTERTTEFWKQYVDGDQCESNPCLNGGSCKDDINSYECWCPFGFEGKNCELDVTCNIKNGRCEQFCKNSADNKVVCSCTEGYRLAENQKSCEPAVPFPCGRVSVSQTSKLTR chain 2: VVGGEDAKPGQFPWQVVLNGKVDAFCGGSIVNEKWIVTAAHCVETGVKITVVAGEHNIEETEHTEQKRNVIRIIPHHNYNAAINKYNHDIALLELDEPLVLNSYVTPICIADAEYTNIFLKFGSGYVSGWGRVFHKGRSALVLQYLRVPLVDRATCLASTKFTIYNNMFCAGFHEGGRDSCQGDSGGPHVTEVEGTSFLTGIISWGEECAMKGKYGIYTKVSAYVNWIKEKTKLT and give its measured KM. 65.4 nM

Consider the protein FIXa-R318Y/T343R/E410N (protein) chain 1: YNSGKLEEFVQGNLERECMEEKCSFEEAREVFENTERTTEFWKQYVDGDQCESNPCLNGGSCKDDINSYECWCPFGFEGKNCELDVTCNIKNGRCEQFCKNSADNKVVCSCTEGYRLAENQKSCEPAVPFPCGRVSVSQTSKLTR chain 2: VVGGEDAKPGQFPWQVVLNGKVDAFCGGSIVNEKWIVTAAHCVETGVKITVVAGEHNIEETEHTEQKRNVIRIIPHHNYNAAINKYNHDIALLELDEPLVLNSYVTPICIADKEYTNIFLKFGSGYVSGWGRVFHKGYSALVLQYLRVPLVDRATCLRSTKFRIYNNMFCAGFHEGGRDSCQGDSGGPHVTEVEGTSFLTGIISWGEECAMKGKYGIYTKVSRYVNWIKNKTKLT and give its measured KM. 52.3 nM

Consider the protein FIXa-R318Y/R338E/T343R (protein) chain 1: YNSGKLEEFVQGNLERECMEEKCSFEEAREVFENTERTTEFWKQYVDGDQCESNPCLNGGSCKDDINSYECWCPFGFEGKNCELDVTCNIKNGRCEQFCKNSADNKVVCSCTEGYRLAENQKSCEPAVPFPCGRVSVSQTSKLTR chain 2: VVGGEDAKPGQFPWQVVLNGKVDAFCGGSIVNEKWIVTAAHCVETGVKITVVAGEHNIEETEHTEQKRNVIRIIPHHNYNAAINKYNHDIALLELDEPLVLNSYVTPICIADKEYTNIFLKFGSGYVSGWGRVFHKGYSALVLQYLRVPLVDRATCLESTKFRIYNNMFCAGFHEGGRDSCQGDSGGPHVTEVEGTSFLTGIISWGEECAMKGKYGIYTKVSRYVNWIKEKTKLT and give its measured KM. 30 nM

Data origin, for the record: patent US20210238260
